# System: SK-MEL-28
# Assay remarks: NCI tumour cell line growth inhibition, 48 h
Active and inactive are the calls of the source. Cut-off read from the data, not from the text of the source: active = GI50 up to about 1.1 µM and inactive = higher.
Outcome codes: active, inactive

- O=c1oc2ccccc2cc1-c1nc2ccc([N+](=O)[O-])cc2o1: inactive
- COC(=O)c1ccccc1/C=C1\Cc2c(ccc3c2CCC3)C1=O: inactive
- CN(Cc1cnc2nc(N)nc(N)c2n1)c1ccc(C(=O)NC(CCS(=O)(=O)O)C(=O)O)cc1 (configuration not stated): inactive
- COC(=O)c1nc(N)nc(O)c1-c1ccc(Cl)cc1: inactive
- O=[N+]([O-])c1ccc2c(c1)nc1n2C(c2c(F)cccc2F)SC1 (configuration not stated): inactive
- CN(C)/C=C/c1c2c(nc3ccccc13)C(=O)c1ccccc1C2=O: active
- O=[N+]([O-])c1ccc(N2C[N+](c3ccccc3)=NC(c3ccccc3)=N2)cc1: inactive
- N#C/C(c1nc2ccccc2[nH]1)=c1\s/c(=C/c2ccc(Cl)cc2)c(=O)n1-c1ccccc1: inactive
- COc1nc2c(c(=O)n1C)N[C@H]1[C@H](OC(C)=O)[C@@H](OC(C)=O)CO[C@H]1N2: inactive
- Cc1ccc(/N=C2/S/C(=C3/CCC=C3N3CCOCC3)N(c3ccc(Cl)cc3)/C2=N/c2ccc(C)cc2)cc1: inactive
- N#Cc1c2ccccc2c(Cc2ccc3c(c2)OCCOCCOCCOCCOCCO3)c2ccccc12: inactive
- CCCNC1=Nc2ccccc2[C@@H]2N(C)c3ccccc3C(C)C[C@]12C (some centres not stated): inactive

---

# Test system: UACC-62
# Assay remarks: NCI tumour cell line growth inhibition, 48 h
Activity calls are given as the source filed them. Cut-off read from the data, not from the text of the source: active = GI50 up to about 1.1 µM and inactive = higher.
Reported property: GI50

* Cc1cc([N+](=O)[O-])ccc1Sc1c2ccccc2nc2cc(Cl)ccc12 | 34.5 µM (inactive)
* O=C1Nc2cc([N+](=O)[O-])ccc2N/C1=C/C(=O)c1ccc(Cl)cc1 | 14.9 µM (inactive)
* Cc1ccc2c(c1)C(=O)C(C1OC(=O)c3ccccc31)C2 (centres undefined) | 96.2 µM (inactive)
* CCCCCCCCCCCC(=O)OCC1OC(n2cc(F)c(=O)[nH]c2=O)C(N)C(OC(=O)CCCCCCCCCCC)C1O (centres undefined) | > 100 µM (inactive)
* CN(c1ccccc1Cl)S(=O)(=O)c1ccc([N+](=O)[O-])cc1 | > 100 µM (inactive)
* O=C(O)C1=CN(c2ccncc2)C(c2ccco2)=CC1c1ccccc1[N+](=O)[O-] (centres undefined) | 15.6 µM (inactive)
* CCCCCCN(CCCCCC)CCC(=O)c1ccc2cc(Br)c3ccccc3c2c1 | 25.8 µM (inactive)
* COc1ccc(/C=N/N=C(\N)NO)cc1F | 12.9 µM (inactive)
* Oc1ccc(Br)cc1/C=N/C1CCCCC1 | 32 µM (inactive)
* O=[N+]([O-])c1ccc2c(c1)nc1n2C(c2c(F)cccc2F)SC1 (centres undefined) | > 100 µM (inactive)
* CN(C)CCC(/C=C/c1ccccc1)=N\Nc1ccc(Cl)cc1Cl | 9.35 µM (inactive)
* COc1ccc(/C=C2\SC(c3ccc(OC)cc3)N(NC(=O)Cc3ccccc3)C2=O)cc1 (centres undefined) | > 100 µM (inactive)
* Clc1ccc(Nc2ncco2)cc1Cl | > 10 µM (inactive)
* CC#CC(O)(C(=O)OC1CCC2CCC1N2C)C1CCCC1 (centres undefined) | > 100 µM (inactive)
* CC(C)(CC(O)C#N)/[N+]([O-])=[N+](\[O-])C(C)(C)CC(O)C#N (centres undefined) | 16 µM (inactive)
* CN(CC(=O)O)c1ncc2c(n1)-c1ccccc1CC2 | > 100 µM (inactive)
* COC12C=CC(CC1)C(C)(C)C2OS(C)(=O)=O (centres undefined) | > 100 µM (inactive)
* O=C1CC(c2cccc([N+](=O)[O-])c2)C2(C(=O)NC(=O)NC2=O)C(c2cccc([N+](=O)[O-])c2)C1 (centres undefined) | 98.4 µM (inactive)
* CC(C)=NN/C(=N\c1ccc(Cl)cc1)NS(=O)(=O)c1ccc(Oc2cccc(Cl)c2C#N)cc1 | > 100 µM (inactive)
* CCN(CC)C(=S)N/N=C/c1cc(OC)ccc1O | 4.25 µM (inactive)
* CC(=O)NC1C(OCC(=O)NC(C)C(=O)NC(CCC(=O)NCCCCCNc2ccc([N+](=O)[O-])c3[nH]c4ccccc4c(=O)c23)C(N)=O)C(O)C(CO)OC1(C)OCc1ccccc1 (centres undefined) | > 50 µM (inactive)
* COc1ccc(-n2cnnc2-c2nsc3ccccc23)cc1 | > 100 µM (inactive)
* COc1c(-c2ccc3c(c2)OCO3)oc2cc(O)cc(O)c2c1=O | 46.6 µM (inactive)
* COC(=O)c1ccccc1/C=C1/Cc2cccc(C)c2C1=O | 52.2 µM (inactive)
* CN(NC1=NCCO1)c1ccc2ccccc2c1 | 49.1 µM (inactive)
* O=C(CCc1nnc(S)[nH]1)NC12CC3CC(CC(C3)C1)C2 | > 100 µM (inactive)
* O=c1oc2ccccc2cc1-c1nc2ccc([N+](=O)[O-])cc2o1 | > 100 µM (inactive)
* N=C(N)N/N=C/c1c(Cl)nc2n1CCS2 | > 100 µM (inactive)
* CC1=C(C)C(=O)OC(C(C)(O)C2(O)CCC3(O)C4CC(Cl)C5(O)C(O)C=CC(=O)C5(C)C4CCC32C)C1 (centres undefined) | 9.1 µM (inactive)
* COc1cc([C@@H]2c3cc4c(cc3[C@@H](NCCNCCO)[C@H]3COC(=O)[C@H]23)OCO4)cc(OC)c1O | 0.644 µM (active)
* COC(=O)c1nc(N)nc(O)c1-c1ccc(Cl)cc1 | > 100 µM (inactive)
* N#Cc1c(C[n+]2ccccc2)c2ccccc2oc1=O | > 100 µM (inactive)
* COc1cccc(C2SCC(=O)N2c2ccc(-c3ccc(-n4c(-c5ccccc5)nc5ccccc5c4=O)cc3)cc2)c1OC (centres undefined) | 29 µM (inactive)
* CC1CC2C(=O)N(c3ccccc3)C(=O)C2c2c1c1ccccc1n2Cc1ccccc1 (centres undefined) | > 100 µM (inactive)
